Target: human DOPA decarboxylase (DDC) (Homo sapiens)
READOUT NAME: IC50

smiles_string=C[C@@](Cc1ccc(O)c(O)c1)(NN)C(=O)O readout_name=IC50 result="10 nM"

* * *

Target: TDCEFS (Enterococcus faecalis)
Construct: 6xHis; made in house; host or cells: Escherichia coli BL21 (DE3), plasmid pSK18 (pET15b)
Assay: IC50 curves with carbidopa as inhibitor, levodopa as substrate
Type: biochemical, Enterococcus faecalis v583
Conditions: read-out: Ki=IC50/(1+([S]/Km))
pKi: −log10 of the molar value.
READOUT NAME: pKi

smiles_string=C[C@@](Cc1ccc(O)c(O)c1)(NN)C(=O)O readout_name=pKi readout_number=4.15

* * *

Target: ^PTDCEFM (Enterococcus faecium, UniProt A0A481NV25)
Sequence (A0A481NV25 whole entry): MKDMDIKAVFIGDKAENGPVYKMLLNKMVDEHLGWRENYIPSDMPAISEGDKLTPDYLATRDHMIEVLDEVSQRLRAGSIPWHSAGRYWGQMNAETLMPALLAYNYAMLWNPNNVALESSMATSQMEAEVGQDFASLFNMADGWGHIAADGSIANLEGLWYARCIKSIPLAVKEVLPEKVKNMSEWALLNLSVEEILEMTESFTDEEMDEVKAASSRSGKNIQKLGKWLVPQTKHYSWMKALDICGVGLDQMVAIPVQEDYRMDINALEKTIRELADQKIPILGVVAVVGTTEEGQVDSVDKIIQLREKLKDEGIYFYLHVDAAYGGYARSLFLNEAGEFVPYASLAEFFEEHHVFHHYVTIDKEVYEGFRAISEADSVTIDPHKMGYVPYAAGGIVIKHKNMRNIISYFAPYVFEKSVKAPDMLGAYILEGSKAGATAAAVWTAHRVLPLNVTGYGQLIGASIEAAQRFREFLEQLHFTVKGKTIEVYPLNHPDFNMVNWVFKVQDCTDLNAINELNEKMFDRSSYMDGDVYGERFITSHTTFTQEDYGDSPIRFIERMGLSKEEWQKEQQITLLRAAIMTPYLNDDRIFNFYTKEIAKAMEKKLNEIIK
READOUT NAME: IC50 (µM)

smiles_string=C[C@@](Cc1ccc(O)c(O)c1)(NN)C(=O)O readout_name=IC50 readout_number=201

* * *

Biological target: TDCEFS (Enterococcus faecalis, UniProt Q838D6)
Sequence (Q838D6 whole entry): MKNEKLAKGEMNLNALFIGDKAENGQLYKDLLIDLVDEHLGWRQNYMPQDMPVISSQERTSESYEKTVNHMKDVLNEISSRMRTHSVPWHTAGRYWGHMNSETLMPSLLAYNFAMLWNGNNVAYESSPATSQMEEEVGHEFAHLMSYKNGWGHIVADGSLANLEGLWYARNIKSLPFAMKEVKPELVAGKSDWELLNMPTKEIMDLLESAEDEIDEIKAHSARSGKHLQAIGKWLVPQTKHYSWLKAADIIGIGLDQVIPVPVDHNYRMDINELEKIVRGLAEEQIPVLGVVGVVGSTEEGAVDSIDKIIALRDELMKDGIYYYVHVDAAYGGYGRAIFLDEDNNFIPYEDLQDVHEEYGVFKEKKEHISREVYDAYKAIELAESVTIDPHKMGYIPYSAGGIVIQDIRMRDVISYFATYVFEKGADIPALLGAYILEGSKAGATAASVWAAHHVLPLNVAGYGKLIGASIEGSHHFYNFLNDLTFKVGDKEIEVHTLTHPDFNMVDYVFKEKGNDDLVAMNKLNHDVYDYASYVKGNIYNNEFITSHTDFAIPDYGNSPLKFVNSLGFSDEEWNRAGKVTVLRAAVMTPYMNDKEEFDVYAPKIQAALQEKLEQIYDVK
READOUT NAME: IC50 (µM)

smiles_string=C[C@@](Cc1ccc(O)c(O)c1)(NN)C(=O)O measured_target="TDCEFS (Enterococcus faecalis, UniProt Q838D6)" readout_name=IC50 readout_number=93.8

* * *

Biological target: TDCEFM (Enterococcus faecium, UniProt Q3Y2S5)
Sequence (Q3Y2S5 entry or part of it): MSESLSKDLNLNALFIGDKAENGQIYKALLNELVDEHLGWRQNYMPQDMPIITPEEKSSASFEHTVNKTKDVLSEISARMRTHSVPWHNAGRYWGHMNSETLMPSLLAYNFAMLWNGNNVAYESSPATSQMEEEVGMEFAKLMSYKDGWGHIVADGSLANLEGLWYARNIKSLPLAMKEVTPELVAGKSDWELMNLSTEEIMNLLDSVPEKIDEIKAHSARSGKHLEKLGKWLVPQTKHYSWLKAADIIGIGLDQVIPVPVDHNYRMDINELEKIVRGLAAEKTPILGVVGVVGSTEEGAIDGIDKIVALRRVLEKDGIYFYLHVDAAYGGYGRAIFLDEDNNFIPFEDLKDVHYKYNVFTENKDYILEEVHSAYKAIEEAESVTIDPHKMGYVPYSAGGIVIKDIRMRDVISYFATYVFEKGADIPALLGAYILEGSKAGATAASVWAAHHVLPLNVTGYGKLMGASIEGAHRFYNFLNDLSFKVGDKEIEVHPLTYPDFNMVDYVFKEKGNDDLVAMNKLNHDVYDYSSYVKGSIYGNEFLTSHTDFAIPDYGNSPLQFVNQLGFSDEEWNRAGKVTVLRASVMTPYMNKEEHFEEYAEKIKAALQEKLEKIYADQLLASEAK
Experiment: IC50 curves with carbidopa as inhibitor, levodopa as substrate
Assay type: biochemical, Enterococcus faecium W54
Settings: read-out: Ki=IC50/(1+([S]/Km))
READOUT NAME: Ki (µM)

smiles_string=C[C@@](Cc1ccc(O)c(O)c1)(NN)C(=O)O readout_name=Ki readout_number=69.6

* * *

Biological target: ^PTDCEFM (Enterococcus faecium)
Construct: 6xHis; made in house; host or cells: Escherichia coli BL21 (DE3), plasmid pSK22 (pET15b)
Experiment: IC50 curves with carbidopa as inhibitor, levodopa as substrate
Assay type: biochemical, Enterococcus faecium W54
Conditions: read-out: Ki=IC50/(1+([S]/Km))
READOUT NAME: Ki (µM)

smiles_string=C[C@@](Cc1ccc(O)c(O)c1)(NN)C(=O)O readout_name=Ki readout_number=95.1

* * *

Target: TDCEFM (Enterococcus faecium, UniProt Q3Y2S5)
pIC50: −log10 of the molar value.
READOUT NAME: pIC50

smiles_string=C[C@@](Cc1ccc(O)c(O)c1)(NN)C(=O)O readout_number=4.10

* * *

Target sequence: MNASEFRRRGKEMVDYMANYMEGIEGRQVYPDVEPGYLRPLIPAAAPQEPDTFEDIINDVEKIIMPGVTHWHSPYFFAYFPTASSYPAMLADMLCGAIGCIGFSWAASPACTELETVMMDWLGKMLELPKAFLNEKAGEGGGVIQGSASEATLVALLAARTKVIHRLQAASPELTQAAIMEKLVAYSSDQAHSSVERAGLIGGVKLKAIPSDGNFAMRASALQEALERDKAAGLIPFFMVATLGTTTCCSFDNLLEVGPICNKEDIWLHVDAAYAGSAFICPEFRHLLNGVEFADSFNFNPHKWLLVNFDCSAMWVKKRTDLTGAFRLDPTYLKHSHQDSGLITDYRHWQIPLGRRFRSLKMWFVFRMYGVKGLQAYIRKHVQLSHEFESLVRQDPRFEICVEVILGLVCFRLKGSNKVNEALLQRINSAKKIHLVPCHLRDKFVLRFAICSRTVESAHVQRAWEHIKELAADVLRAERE
pKi: −log10 of the molar value.
READOUT NAME: pKi

molecule="C[C@@](Cc1ccc(O)c(O)c1)(NN)C(=O)O [carbidopa]" readout_number=8.30
